The measured values listed here are drawn from the kinase profiling compilation of Christmann-Franck et al. (2016).

So I've got a bunch of compounds here, and I need their residual activity values.
tested target: HIPK3 (human) (UniProt Q9H422)
Sequence (Q9H422 whole entry, looked up): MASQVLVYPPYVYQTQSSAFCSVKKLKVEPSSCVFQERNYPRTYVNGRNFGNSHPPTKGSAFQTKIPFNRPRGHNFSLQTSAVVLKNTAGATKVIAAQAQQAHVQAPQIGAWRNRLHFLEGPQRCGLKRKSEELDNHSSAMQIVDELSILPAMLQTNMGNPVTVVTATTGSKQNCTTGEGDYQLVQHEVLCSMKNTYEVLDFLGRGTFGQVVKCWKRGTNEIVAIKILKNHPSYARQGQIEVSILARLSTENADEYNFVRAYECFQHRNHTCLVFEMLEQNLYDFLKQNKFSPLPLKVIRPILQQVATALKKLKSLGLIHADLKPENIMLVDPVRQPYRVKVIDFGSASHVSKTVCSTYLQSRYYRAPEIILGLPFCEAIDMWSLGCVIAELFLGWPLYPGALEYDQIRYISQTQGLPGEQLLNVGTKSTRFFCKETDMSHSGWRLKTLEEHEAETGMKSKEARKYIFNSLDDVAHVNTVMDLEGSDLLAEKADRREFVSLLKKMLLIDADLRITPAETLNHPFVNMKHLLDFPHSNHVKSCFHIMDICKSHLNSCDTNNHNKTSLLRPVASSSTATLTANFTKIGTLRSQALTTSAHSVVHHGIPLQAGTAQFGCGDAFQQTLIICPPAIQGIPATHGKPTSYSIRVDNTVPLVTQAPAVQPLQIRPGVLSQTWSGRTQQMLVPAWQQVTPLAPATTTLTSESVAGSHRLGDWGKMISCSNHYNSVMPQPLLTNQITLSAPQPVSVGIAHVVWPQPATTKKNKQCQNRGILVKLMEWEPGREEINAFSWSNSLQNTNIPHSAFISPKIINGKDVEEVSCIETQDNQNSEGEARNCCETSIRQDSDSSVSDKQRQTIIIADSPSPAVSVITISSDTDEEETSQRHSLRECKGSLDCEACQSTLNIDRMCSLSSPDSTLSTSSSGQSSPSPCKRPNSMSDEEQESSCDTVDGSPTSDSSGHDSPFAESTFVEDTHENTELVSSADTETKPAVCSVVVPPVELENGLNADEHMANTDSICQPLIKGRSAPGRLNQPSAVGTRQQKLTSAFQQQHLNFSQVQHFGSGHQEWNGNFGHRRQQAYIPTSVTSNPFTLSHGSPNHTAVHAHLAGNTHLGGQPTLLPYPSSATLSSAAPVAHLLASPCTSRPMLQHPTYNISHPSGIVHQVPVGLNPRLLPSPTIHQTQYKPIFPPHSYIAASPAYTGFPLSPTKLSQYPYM
assay overview: radiometric filter-binding kinase assay, Kinase HotSpot
recorded conditions: compound 0.5 µM; ATP 10 µM
Numbers only, in %.

> print(dat)
                              line.notation                   tested.target  assay.result
1  CC[n+]1c(/C=C/N(C)c2ccccc2)n(-c2ccccc2)c2ccc(-c3nc4ccccc4s3)cc21  HIPK3 (human) (UniProt Q9H422)           105
2     CCC(=O)Nc1ccc2ncnc(Nc3cccc(Br)c3)c2c1  HIPK3 (human) (UniProt Q9H422)          92.1
3  CCN(CC)CCNC(=O)c1c(C)[nH]c(/C=C2\C(=O)Nc3ccc(Cl)cc32)c1C  HIPK3 (human) (UniProt Q9H422)          50.8
4              Cc1ccc(S(=O)(=O)/C=C/C#N)cc1  HIPK3 (human) (UniProt Q9H422)           100
5           CNc1cc2c(Nc3cccc(Br)c3)ncnc2cn1  HIPK3 (human) (UniProt Q9H422)          94.1

Value sought for every listed compound: residual activity.
1. Nc1ccc2ncnc(NCCc3ccc(Oc4ccccc4)cc3)c2c1
2. c1ccc(-c2n[nH]cc2-c2ccnc3ccccc23)nc1

**Result**
98.6
97

* * *

So I've got a bunch of molecules here, and I need their residual activity values.
tested target: HIPK2 (human) (UniProt Q9H2X6)
Sequence (Q9H2X6 whole entry, looked up): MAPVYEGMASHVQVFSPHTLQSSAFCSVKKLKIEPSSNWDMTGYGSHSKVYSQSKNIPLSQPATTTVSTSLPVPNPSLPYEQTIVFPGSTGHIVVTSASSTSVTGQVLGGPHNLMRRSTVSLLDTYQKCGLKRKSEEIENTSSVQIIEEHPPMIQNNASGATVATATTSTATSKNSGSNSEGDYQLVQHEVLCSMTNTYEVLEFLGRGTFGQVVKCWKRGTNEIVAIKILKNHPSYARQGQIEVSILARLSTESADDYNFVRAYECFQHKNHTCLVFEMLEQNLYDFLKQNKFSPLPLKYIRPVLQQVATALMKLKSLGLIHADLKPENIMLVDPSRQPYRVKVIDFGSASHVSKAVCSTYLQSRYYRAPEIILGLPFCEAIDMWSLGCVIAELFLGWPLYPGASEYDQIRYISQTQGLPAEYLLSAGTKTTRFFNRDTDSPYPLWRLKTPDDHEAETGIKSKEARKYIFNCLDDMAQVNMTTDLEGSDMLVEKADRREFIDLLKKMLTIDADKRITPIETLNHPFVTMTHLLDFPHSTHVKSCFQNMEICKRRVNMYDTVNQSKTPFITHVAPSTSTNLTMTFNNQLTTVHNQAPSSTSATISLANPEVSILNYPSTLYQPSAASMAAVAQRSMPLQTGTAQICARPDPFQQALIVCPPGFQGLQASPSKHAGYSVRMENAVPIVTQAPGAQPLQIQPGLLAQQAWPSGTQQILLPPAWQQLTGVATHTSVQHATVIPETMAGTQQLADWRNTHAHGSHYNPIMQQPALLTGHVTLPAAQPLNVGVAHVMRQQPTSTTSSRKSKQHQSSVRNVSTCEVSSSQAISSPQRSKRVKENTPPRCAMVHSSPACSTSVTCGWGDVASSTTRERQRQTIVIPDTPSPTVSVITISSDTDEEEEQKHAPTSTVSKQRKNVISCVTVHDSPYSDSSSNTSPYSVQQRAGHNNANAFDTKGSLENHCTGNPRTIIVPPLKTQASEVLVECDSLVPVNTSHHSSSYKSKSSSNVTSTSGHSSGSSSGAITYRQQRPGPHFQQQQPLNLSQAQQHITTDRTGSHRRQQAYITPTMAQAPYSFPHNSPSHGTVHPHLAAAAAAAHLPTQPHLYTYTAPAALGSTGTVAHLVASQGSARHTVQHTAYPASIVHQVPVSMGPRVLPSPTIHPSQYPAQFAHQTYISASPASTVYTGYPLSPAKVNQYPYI
assay overview: radiometric filter-binding kinase assay, Kinase HotSpot
recorded conditions: compound 0.5 µM; ATP 10 µM
One number for each entry, in %.

> print(dat)
                              line.notation  readout.units  assay.result
1  O=C1Nc2ccc(Cl)cc2/C1=C/c1cc(Cl)c(O)c(Cl)c1              %           122
2  Nc1cccc(-c2cc3c(Oc4cccc(O)c4)ncnc3[nH]2)c1              %           100
3       N#CC(C#N)=C(N)/C(C#N)=C/c1ccc(O)cc1              %           102
4    CC(C)N(CCC(=O)c1ccc2ccccc2c1)Cc1ccccc1              %           107

Kindly consider the entry below.
Bench note, HIPK2 (human) (UniProt Q9H2X6): Cc1[nH]c(/C=C2\C(=O)Nc3ccc(S(=O)(=O)N(C)c4cccc(Cl)c4)cc32)c(C)c1C(=O)N1CCN(C)CC1 , residual activity reads 105

* * *

tested target: HIPK4 (human) (UniProt Q8NE63)
Sequence (Q8NE63 whole entry, looked up): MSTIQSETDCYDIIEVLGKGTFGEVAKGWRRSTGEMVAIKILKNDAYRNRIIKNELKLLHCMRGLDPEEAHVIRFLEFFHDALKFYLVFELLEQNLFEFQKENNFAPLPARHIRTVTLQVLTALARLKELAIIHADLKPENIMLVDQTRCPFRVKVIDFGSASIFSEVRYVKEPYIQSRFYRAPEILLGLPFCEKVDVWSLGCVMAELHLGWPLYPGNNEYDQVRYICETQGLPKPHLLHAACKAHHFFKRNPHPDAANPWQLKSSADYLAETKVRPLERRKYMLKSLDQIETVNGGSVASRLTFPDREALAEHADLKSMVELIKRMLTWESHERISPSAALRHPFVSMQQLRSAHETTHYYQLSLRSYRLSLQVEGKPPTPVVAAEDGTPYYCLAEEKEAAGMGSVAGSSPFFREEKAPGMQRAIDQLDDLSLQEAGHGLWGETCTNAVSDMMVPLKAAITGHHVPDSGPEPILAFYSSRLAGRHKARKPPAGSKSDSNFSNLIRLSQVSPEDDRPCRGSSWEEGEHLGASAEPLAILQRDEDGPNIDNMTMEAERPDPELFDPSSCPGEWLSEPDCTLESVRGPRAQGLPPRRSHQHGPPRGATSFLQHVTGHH
assay overview: radiometric filter-binding kinase assay, Kinase HotSpot
recorded conditions: compound 0.5 µM; ATP 10 µM
reported property: residual activity (%)
Numbers only, in %.

> print(dat)
                              line.notation  reported.property  assay.result
1           CNc1cc2c(Nc3cccc(Br)c3)ncnc2cn1  residual activity          82.8
2              Cc1ccc(S(=O)(=O)/C=C/C#N)cc1  residual activity           108
3  Nc1ncnc2c1c(-c1ccc(Oc3ccccc3)cc1)cn2C1CCCC1  residual activity           102

Value sought for every listed compound: residual activity.
1. CC[n+]1c(/C=C/N(C)c2ccccc2)n(-c2ccccc2)c2ccc(-c3nc4ccccc4s3)cc21
2. CCC(=O)Nc1ccc2ncnc(Nc3cccc(Br)c3)c2c1
3. O=S(=O)(c1cccc2cnccc12)N1CCCNCC1
4. CNC(=O)c1cc(Oc2ccc(NC(=O)Nc3ccc(Cl)c(C(F)(F)F)c3)cc2)ccn1
5. COc1ccc2c(c[n+](C)c3c4cc5c(cc4ccc23)OCO5)c1OC
6. Nc1ccc2ncnc(NCCc3ccc(Oc4ccccc4)cc3)c2c1
7. Cc1[nH]c(/C=C2\C(=O)Nc3ccc(S(=O)(=O)N(C)c4cccc(Cl)c4)cc32)c(C)c1C(=O)N1CCN(C)CC1

**Result**
1: 102; 2: 87.8; 3: 103; 4: 4.85; 5: 95.9; 6: 97.4; 7: 103
